B1: library; numbered along this chain (parent)
chain: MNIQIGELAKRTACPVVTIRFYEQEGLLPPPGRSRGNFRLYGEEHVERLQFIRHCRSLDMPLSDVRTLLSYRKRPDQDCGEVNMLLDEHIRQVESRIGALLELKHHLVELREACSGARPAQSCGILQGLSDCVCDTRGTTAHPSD

# Variants of: B1
# assayOverview: sfGFP reporter fluorescence (15 h) (µM FITC); higher = higher leak
# conditionSet: library round: Round 0; ligand: none
Kindly return condition met if reported sfGFP reporter fluorescence is no lower than 0.06; return condition not met if it is lower.

G80A :: condition not met
Y41R :: condition met
R111I :: condition not met
P143G :: condition not met
M60L P61N L107C G128M :: condition met

# bool: sfGFP reporter fluorescence of L126R >= 0.06
condition met

# bool: sfGFP reporter fluorescence of Y22Q >= 0.06
condition met

# bool: sfGFP reporter fluorescence of V16D >= 0.06
condition met

# bool: sfGFP reporter fluorescence of I90G >= 0.06
condition not met

# bool: sfGFP reporter fluorescence of V16M >= 0.06
condition met

# bool: sfGFP reporter fluorescence of Q77A >= 0.06
condition met

# bool: sfGFP reporter fluorescence of C123I >= 0.06
condition not met

# bool: sfGFP reporter fluorescence of C123F >= 0.06
condition not met

# bool: sfGFP reporter fluorescence of C55V >= 0.06
condition met

# bool: sfGFP reporter fluorescence of L126G >= 0.06
condition not met
